Test system: Enterococcus faecium
assay-remarks: Antibacterial activity against vancomycin-resistant Enterococcus faecium ATCC 700221 after 16 to 18 hrs by broth microdilution method
Assay type: functional
Each item that follows carries a reported MIC.
Kindly answer with a numeric value in µM, unit omitted.

mol-smiles	observable	measurement
CC1=C(C)C(=O)C(COC(=O)OCOc2c(Br)cc(Br)c3nc4ccccc4nc23)=C(C)C1=O	MIC	9.38
CC1=C(C)C(=O)C(COC(=O)OCOc2c(Br)cc(Br)c3nc4cc(Cl)ccc4nc23)=C(C)C1=O	MIC	1.56
Cc1cc(C)c2nc3c(Br)ccc(O)c3nc2c1	MIC	9.38
Oc1c(Br)cc(Br)c2nc3ccccc3nc12	MIC	6.25

Next compound, please.
Data request, read-out MIC, for Cc1cc(C)c2nc3c(Br)cc(Br)c(O)c3nc2c1
0.2

* * *

compounds and their reported MBC
Test system: Staphylococcus epidermidis
assay-remarks: Bactericidal activity against methicillin-resistant Staphylococcus epidermidis ATCC 35984 planktonic cells after 24 hrs by calgary biofilm device method
Type: organism-based
The figure you give is taken to be in µM; do not add the unit.

compound	measurement
COCCOCCOCCOCCOC(=O)Oc1c(Br)cc(Br)c2nc3cc(Oc4ccccc4)ccc3nc12	9.38
CN[C@H](CC(C)C)C(=O)N[C@H]1C(=O)N[C@@H](CC(N)=O)C(=O)N[C@H]2C(=O)N[C@H]3C(=O)N[C@H](C(=O)N[C@H](C(=O)O)c4cc(O)cc(O)c4-c4cc3ccc4O)[C@H](O)c3ccc(c(Cl)c3)Oc3cc2cc(c3O[C@@H]2O[C@H](CO)[C@@H](O)[C@H](O)[C@H]2O[C@H]2C[C@](C)(N)[C@H](O)[C@H](C)O2)Oc2ccc(cc2Cl)[C@H]1O	3

Lab note: next compound to report on.
Query MBC on Staphylococcus epidermidis for N#CC(C#N)=NNc1cccc(Cl)c1 [CARBONYL CYANIDE M-CHLOROPHENYLHYDRAZONE]
31.3

* * *

assay-remarks: Hemolytic activity in human RBC at 200 uM after 1 hr relative to control
Assay type: ADME, cell-based, Erythrocyte
condition: red blood cells (erythrocytes), read-out: Activity
observable: hemolysis at 1 h, 200 µM (%)
Form entry: value (%) — number only.

mol-smiles	measurement
COCCOCCOCC(=O)Oc1c(Br)cc(Br)c2nc3ccccc3nc12	1.2
CCCc1ccc2nc3c(O)c(Br)cc(Br)c3nc2c1	2.1
COCCOCCOCCOC(=O)OCOc1c(Br)cc(Br)c2nc3ccccc3nc12	1.4
COCCOCCOCCOCCOC(=O)Oc1c(Br)cc(Br)c2nc3cc(Cl)ccc3nc12	1.1
Cc1cc(C)c2nc3c(Br)cc(Br)c(O)c3nc2c1	2.2
CCc1ccc2nc3c(O)c(Br)cc(Br)c3nc2c1	3

// lookup hemolysis at 1 h, 200 µM for CC1=C(C)C(=O)C(COC(=O)OCOc2c(Br)cc(Br)c3nc4cc(Cl)ccc4nc23)=C(C)C1=O
2.7

How about Cc1cc2nc3c(O)c(Br)cc(Br)c3nc2c(C)c1C ?
1.3

Please do the same for O=C(OCCOCCOCCOCCO)OCOc1c(Br)cc(Br)c2nc3ccccc3nc12 as well.
2.7

Also check O=C(OCCSSCCOC(=O)c1ccccc1)OCOc1c(Br)cc(Br)c2nc3ccccc3nc12
1.3
